# Test system: Marburg virus (MARV)
# METHOD SUMMARY: organism not typed
# Assay type: cell-based
# STUDY CONDITIONS: Vero, 72 h, read-out: Percent viral inhibition MARV

{"COMPOUND": "O=C(O)CC1CCN(Cc2cc(Oc3cnc(N4CC5CCC(C4)N5)nc3)nc(-c3cc(Cl)cc(Cl)c3)c2)CC1 [Example 163]", "STUDY SYSTEM": "Marburg virus (MARV)", "UNIT OF MEASURE": "%", "inhibition at 1 µM": 34.4}
{"COMPOUND": "CN1CCN(c2ncc(Oc3cc(CN4CCC(CC(=O)O)CC4)cc(-c4cc(Cl)cc(Cl)c4)n3)cn2)CC(O)C1 (stereo not shown) [Example 226]", "STUDY SYSTEM": "Marburg virus (MARV)", "UNIT OF MEASURE": "%", "inhibition at 1 µM": 41.4}
{"COMPOUND": "O=C(O)CC1CCN(Cc2cc(Oc3ccc(N4C[C@@H]5C[C@H]4CN5)nc3)nc(-c3cc(Cl)cc(Cl)c3)c2)CC1 [Example 187]", "STUDY SYSTEM": "Marburg virus (MARV)", "UNIT OF MEASURE": "%", "inhibition at 1 µM": 24.1}
{"COMPOUND": "CC(=O)NCC1CCN(Cc2cc(Oc3ccc(N4CCN(CCC(=O)O)CC4)nn3)nc(-c3cc(Cl)cc(Cl)c3)c2)CC1 [Example 169]", "STUDY SYSTEM": "Marburg virus (MARV)", "UNIT OF MEASURE": "%", "inhibition at 1 µM": 16.4}
{"COMPOUND": "CN1CCCN(c2ccc(Oc3cc(CN4CCC(CC(=O)O)CC4)cc(-c4cc(Cl)cc(Cl)c4)n3)cn2)CC1 [Example 156]", "STUDY SYSTEM": "Marburg virus (MARV)", "UNIT OF MEASURE": "%", "inhibition at 1 µM": 13.2}
{"COMPOUND": "CS(=O)(=O)CCCN1CCN(c2ccc(Oc3cc(CN4CCC(CC(=O)O)CC4)cc(-c4cc(Cl)cc(Cl)c4)n3)cn2)CC1 [Example 243]", "STUDY SYSTEM": "Marburg virus (MARV)", "UNIT OF MEASURE": "%", "inhibition at 1 µM": 46.8}
{"COMPOUND": "CNC(=O)OCC1CCN(Cc2cc(Oc3cnc(N4CCN(C5CC(C(=O)O)C5)CC4)nc3)nc(-c3cc(Cl)cc(Cl)c3)c2)CC1 (stereo not shown) [Example 211]", "STUDY SYSTEM": "Marburg virus (MARV)", "UNIT OF MEASURE": "%", "inhibition at 1 µM": 62.5}

# credit: patent US20230011571A1
